tested on: FLK-1 receptor; assay: FLK-1 Assay (cellular/catalytic ELISA, VEGF-stimulated phosphotyrosine); type: cell-based; set-up: concentration or dose not given beside the values
Listed compounds paired with reported Flk Kinase % Inhibition (P.110)
Report the figure in % without appending any unit label.

Q) Determine its reported Flk Kinase % Inhibition (P.110): Cc1cccc(C=C2C(=O)Nc3c(Br)cc(Br)cc32)c1
A) −13.0

Q) Determine its reported Flk Kinase % Inhibition (P.110): Cc1ccc(C=C2C(=O)Nc3ccc(Br)c(C)c32)cc1
A) 4.6

Q) Determine its reported Flk Kinase % Inhibition (P.110): Cc1cc(C=C2C(=O)Nc3c(Br)cc(Br)c(C)c32)ccc1O
A) 10.6

Q) Determine its reported Flk Kinase % Inhibition (P.110): Cc1c(Br)cc(Br)c2c1C(=Cc1ccc[nH]1)C(=O)N2
A) −17.5

Q) Determine its reported Flk Kinase % Inhibition (P.110): CCN(CC)c1ccc(C=C2C(=O)Nc3ccc(CCCl)cc32)c(O)c1
A) 7.4
